# experimental-protocol: Metabolic stability in human hepatic microsome
# Type: in vitro ADME
# condition-label: microsomes, pH 7.4; human hepatic microsome, NADPH(+); read-out: CL NADPH(+)
Starred links: 1 amine or outer side, 2 acyl side, 3 side chain; linkers in the order of their positions; H or OH if unused. Positions of bridges follow the written chain, without caps; N, C: chain ends. Non-standard residues stand in square brackets, D forms with d. Residues, ends and D or L forms follow the SMILES beside them. *: point of attachment. NMeF = CN[C@@H](Cc1ccccc1)C(=O)O; NMeGABA = CN(CCCC(=O)[*:2])[*:1]; NMeI = CC[C@H](C)[C@H](NC)C(=O)O; NMeβAla = CN(CCC(=O)[*:2])[*:1]; NMeL = CN[C@@H](CC(C)C)C(=O)O; Ala(CN) = N#CC[C@H](N)C(=O)O; NMeV = CN[C@H](C(=O)O)C(C)C; NMeA = CN[C@@H](C)C(=O)O; Piperidide = C1CCN(*)CC1; dNMeA = CN[C@H](C)C(=O)O; Sar = CNCC(=O)O; tBu = CC(C)(C)*
Listing of entries alongside the reported log10(microsomal CLint at 1 uM).
A value of 2 here means microsomal CLint at 1 uM of 100 in µL/min/mg, since values are log10.

# count of solved cases: 5
Lookup: Look up and report measured log10(microsomal CLint at 1 uM) for this entry: CC(C)C[C@@H]1NC(=O)CCN(C)C(=O)C[C@@H](C(=O)N2CCCCC2)NC(=O)[C@H](CC(C)C)N(C)C(=O)[C@H](CC(C)C)NC(=O)[C@H](Cc2ccccc2)NC(=O)[C@H](C)NC(=O)[C@H]([C@@H](C)O)NC(=O)[C@H](CC(C)C)NC(=O)CN(C)C(=O)[C@H](CC(C)C)NC1=O [DP-324] ([NMeβAla]LL[Sar]LTAFL[NMeL]D-Piperidide; lactam N-11)
Found: 1.77

Lookup: Look up and report measured log10(microsomal CLint at 1 uM) for this entry: CC(C)C[C@H]1C(=O)N(C)[C@@H](CC(C)C)C(=O)N[C@@H](Cc2c[nH]c3ccccc23)C(=O)N[C@H](C(=O)N(C)[C@@H](Cc2ccccc2)C(=O)N[C@@H](C)C(=O)N2CCCCC2)CC(=O)N[C@@H](C)C(=O)N[C@@H](Cc2ccccc2)C(=O)N(C)[C@@H](CC(C)C)C(=O)N[C@@H]([C@@H](C)O)C(=O)N(C)[C@@H](Cc2ccccc2)C(=O)NCC(=O)N1C [DP-608] (AF[NMeL]T[NMeF]G[NMeL][NMeL]WD[NMeF]A-Piperidide; lactam N-10)
Found: 1.11

Lookup: Look up and report measured log10(microsomal CLint at 1 uM) for this entry: CC(C)C[C@H]1C(=O)N[C@@H]([C@@H](C)O)C(=O)N(C)[C@@H](CC(C)C)C(=O)N(C)CC(=O)N(C)[C@@H](Cc2ccccc2)C(=O)N[C@@H](COC(C)(C)C)C(=O)N[C@H](C(=O)N2CCCCC2)CC(=O)N1C [DP-717] ([NMeL]T[NMeL][Sar][NMeF]S(tBu)D-Piperidide; lactam N-7)
Found: 2.00

Lookup: Look up and report measured log10(microsomal CLint at 1 uM) for this entry: CC(C)C[C@@H]1NC(=O)[C@H](CC(C)C)N(C)C(=O)[C@H](C)N(C)C(=O)C[C@@H](C(=O)N2CCCCC2)NC(=O)[C@H](CC(C)C)N(C)C(=O)[C@H](Cc2ccccc2)N(C)C(=O)[C@H](Cc2ccccc2)N(C)C(=O)[C@H]([C@@H](C)O)NC(=O)[C@H](Cc2ccccc2)N(C)C1=O [DP-442] ([NMeA][NMeL]L[NMeF]T[NMeF][NMeF][NMeL]D-Piperidide; lactam N-9)
Found: 2.20

Lookup: Look up and report measured log10(microsomal CLint at 1 uM) for this entry: CC[C@H](C)[C@H]1C(=O)N(C)[C@@H](Cc2ccccc2)C(=O)N[C@@H](CC(C)C)C(=O)N[C@H](C(=O)N2CCCCC2)CC(=O)N(C)CCCC(=O)N(C)[C@@H](CC(C)C)C(=O)N[C@@H]([C@@H](C)O)C(=O)N(C)[C@@H](Cc2ccccc2)C(=O)N(C)[C@@H](CC(C)C)C(=O)N(C)[C@@H](CC(C)C)C(=O)N[C@@H](C)C(=O)N1C [DP-248] ([NMeGABA][NMeL]T[NMeF][NMeL][NMeL]A[NMeI][NMeF]LD-Piperidide; lactam N-11)
Found: 1.56

---
Lookup: Look up and report measured log10(microsomal CLint at 1 uM) for this entry: CC(C)C[C@H]1C(=O)N[C@H](C(=O)N2CCCCC2)CC(=O)N(C)[C@H](C)C(=O)N(C)[C@@H](Cc2ccccc2)C(=O)N(C)[C@@H](CC(C)C)C(=O)N[C@@H]([C@@H](C)O)C(=O)N(C)[C@@H](CC(C)C)C(=O)N[C@@H](COC(C)(C)C)C(=O)N1C [DP-683] ([dNMeA][NMeF][NMeL]T[NMeL]S(tBu)[NMeL]D-Piperidide; lactam N-8)
Found: 1.72

Lookup: Look up and report measured log10(microsomal CLint at 1 uM) for this entry: CC(C)C[C@H]1C(=O)N(C)CC(=O)N(C)[C@@H](C)C(=O)N[C@@H]([C@@H](C)O)C(=O)N[C@H](C(=O)N2CCCCC2)CC(=O)N[C@H](C(C)C)C(=O)N(C)[C@@H](C)C(=O)N(C)[C@@H](CC(C)C)C(=O)N[C@@H](CC#N)C(=O)N(C)[C@@H](Cc2ccccc2)C(=O)N[C@@H](Cc2ccccc2)C(=O)N1C [DP-629] ([dV][NMeA][NMeL][Ala(CN)][NMeF]F[NMeL][Sar][NMeA]TD-Piperidide; lactam N-11)
Found: 1.20

Lookup: Look up and report measured log10(microsomal CLint at 1 uM) for this entry: CC(C)C[C@H]1C(=O)N[C@H](C(=O)N2CCCCC2)CC(=O)N[C@H](C)C(=O)N(C)[C@@H](C)C(=O)N(C)[C@@H](Cc2ccccc2)C(=O)N(C)[C@@H](CC(C)C)C(=O)N[C@@H]([C@@H](C)O)C(=O)N1C [DP-739] ([dA][NMeA][NMeF][NMeL]T[NMeL]D-Piperidide; lactam N-7)
Found: 2.21

Lookup: Look up and report measured log10(microsomal CLint at 1 uM) for this entry: CC(C)C[C@H]1C(=O)N(C)[C@@H](Cc2ccccc2)C(=O)N[C@H](C(=O)N2CCCCC2)CC(=O)N[C@H](C(C)C)C(=O)N[C@@H](C)C(=O)N[C@@H]([C@@H](C)O)C(=O)N(C)[C@@H](C)C(=O)N[C@@H](Cc2ccccc2)C(=O)N1C [DP-526] ([dV]AT[NMeA]F[NMeL][NMeF]D-Piperidide; lactam N-8)
Found: 1.69

Lookup: Look up and report measured log10(microsomal CLint at 1 uM) for this entry: CC(C)C[C@@H]1NC(=O)[C@H](CC(C)C)N(C)C(=O)[C@H](Cc2ccccc2)NC(=O)[C@H](C)NC(=O)[C@H](C(C)C)N(C)C(=O)CN(C)C(=O)[C@H]([C@@H](C)O)NC(=O)[C@H](C)N(C)C(=O)[C@H](CC(C)C)N(C)C(=O)[C@H](C)NC(=O)C[C@@H](C(=O)N(C)[C@@H](Cc2ccccc2)C(=O)N[C@@H](C)C(=O)N2CCCCC2)NC1=O [DP-177] (A[NMeL][NMeA]T[Sar][NMeV]AF[NMeL]LD[NMeF]A-Piperidide; lactam N-11)
Found: 1.43

All figures here come from patent US9409952B2.
